Assignment: determine reported IC50 for the given binders.
- experimentalSystem: T1, human ASGR-1 (human, UniProt P07306 1-291)
- T1 construct: Stably expressed on CHO-S cells (CHO-S:huASGR-1); The method text says human or mouse ASGR-1 cells were used; also called huASGR-1; hASGR-1
- T1 sequence: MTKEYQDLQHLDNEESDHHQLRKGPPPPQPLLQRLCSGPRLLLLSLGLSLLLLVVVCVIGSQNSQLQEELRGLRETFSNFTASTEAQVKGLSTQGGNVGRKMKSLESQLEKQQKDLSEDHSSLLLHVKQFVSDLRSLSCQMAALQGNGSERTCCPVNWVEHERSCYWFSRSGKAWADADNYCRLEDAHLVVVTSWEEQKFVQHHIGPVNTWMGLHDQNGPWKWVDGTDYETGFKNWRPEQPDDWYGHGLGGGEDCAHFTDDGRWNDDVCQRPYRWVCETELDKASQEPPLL
- methodDescription: FACS ligand blocking on CHO-S ASGR-1 cells; competitor biotinylated asialofetuin
Answer format: numeric, nM implied, no suffix.

INPUT: If you can, please state the reported IC50 value of 4H6 (antibody, V domains shown, tested as antibody purified from hybridoma supernatant or made recombinantly) VH: QVQLVQSGAEVKKPGASVKVSCKASGYTFTDYYLHWVRQAPGQGLEWMGWIHPNSGGTNYAQKFQGRVTMTRDTSISTAYMGLSSLRSDDTAVYYCARDGTSSFDYWGQGTLVTVSS VL: DIQMTQSPSSVSASVGDRVTITCRASQGISRWLAWYQQKPGKAPKLLIYGASSLQSGVPSRFSGSGSGTDFTLTISSLQPEDFAIYYCQQANSFPFTFGPGTKVDIK .
OUTPUT: 12

INPUT: Also need 193E7 (antibody, V domains shown) VH: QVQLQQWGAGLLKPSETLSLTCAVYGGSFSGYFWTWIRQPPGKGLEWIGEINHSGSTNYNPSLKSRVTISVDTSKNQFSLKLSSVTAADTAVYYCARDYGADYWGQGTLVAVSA VL: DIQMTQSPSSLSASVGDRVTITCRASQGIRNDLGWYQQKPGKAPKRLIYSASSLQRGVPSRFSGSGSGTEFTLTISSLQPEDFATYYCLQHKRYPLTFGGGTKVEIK , thanks.
OUTPUT: 30

INPUT: Also need 48B12 (antibody, V domains shown) VH: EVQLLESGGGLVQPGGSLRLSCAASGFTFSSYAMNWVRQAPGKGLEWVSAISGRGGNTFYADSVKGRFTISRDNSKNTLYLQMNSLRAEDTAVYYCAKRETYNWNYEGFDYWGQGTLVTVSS VL: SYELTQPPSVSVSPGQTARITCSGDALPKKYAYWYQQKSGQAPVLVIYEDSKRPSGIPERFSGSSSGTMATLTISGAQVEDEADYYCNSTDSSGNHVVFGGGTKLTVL , thanks.
OUTPUT: 19

INPUT: Also need 184E7 (antibody, V domains shown) VH: QVQLVQSGAEVKTPGASVKVSCRASGYTFTSYNMHWVRQVPGQGLEWMGWINPNNGGSNYTQKFQGRVTMTRDTSISTAYMELSRLRSDDTAVYYCARKFGDWGQGTLVTVSS VL: DIQMTQSPSSRSASIGERVTITCRASQGISNYLAWIQQKPGTAPKSLIYAASSLQSGVSSRFSGSGFGTDFTITISSVQREDFATYYCQQYNGYPFTFGHGTKVDIK , thanks.
OUTPUT: 23

INPUT: Also need 198D2 (antibody, V domains shown) VH: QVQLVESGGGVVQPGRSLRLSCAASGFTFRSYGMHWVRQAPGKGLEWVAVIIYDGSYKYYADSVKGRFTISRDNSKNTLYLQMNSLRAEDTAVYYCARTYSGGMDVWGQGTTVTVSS VL: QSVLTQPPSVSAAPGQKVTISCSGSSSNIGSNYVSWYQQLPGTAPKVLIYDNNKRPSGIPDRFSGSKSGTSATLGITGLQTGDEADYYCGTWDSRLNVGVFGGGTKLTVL , thanks.
OUTPUT: 22

Values were extracted from patent US20190248902A1.
